src = ChEMBL document CHEMBL3046622

- Test system: Tribolium castaneum
- Assay Explanation: Insecticidal activity against Tribolium castaneum (red flour beetle) assessed as mortality at 200 ug/ml
- Type: functional
Rule for this label: 1 (yes) means Activity is less than 20%; 0 (no) means Activity is at least 20%.

Exercise: Field: below-cutoff. Rule: recorded Activity strictly less than 20%. Subject: Cc1cccc(C(=O)n2cc(C)n(-c3ccc(Cl)cc3)c2=S)c1
Solution: 1 (yes)

Exercise: Given the entry Cc1cccc(C(=O)n2cc(C)n(-c3ccccc3Cl)c2=S)c1 , would its reported Activity be below 20%?
Solution: 1 (yes)

Exercise: Is it true that Activity reported for Cc1ccc(C(=O)n2cc(C)n(-c3ccc(Cl)cc3)c2=S)cc1 is less than 20%?
Solution: 1 (yes)

Exercise: Is Activity strictly under 20% for the entry COc1ccccc1C(=O)n1cc(C)n(-c2ccc(Cl)cc2)c1=S ?
Solution: 0 (no)

Exercise: Confirm or reject: Activity of Cc1cccc(C(=O)n2cc(C)n(-c3cccc(Cl)c3)c2=S)c1 lies strictly below 20%
Solution: 0 (no)

Exercise: Lab note: confirm whether the reported Activity for this compound is below 20%, equality not counting. compound: Cc1cccc(C(=O)n2cc(C)n(-c3ccc(Br)cc3)c2=S)c1
Solution: 0 (no)

* * *

- Test system: Candida albicans
- Assay Explanation: Antifungal activity against Candida albicans assessed as fungus growth at 200 mg/ml by agar dilution method relative to control
- Format: functional
Measurement Kind: Activity (%)
Your answer is read as %, so omit the unit and give the number.

Exercise: Would you kindly share the measured Activity for Cc1ccc(C(=O)n2cc(C)n(-c3ccccc3)c2=S)cc1 ?
Solution: 100

Exercise: Look up Activity: Cc1cccc(C(=O)n2cc(C)n(-c3cccc(Cl)c3)c2=S)c1
Solution: 100

Exercise: What value of Activity has been reported for the following compound? Cc1cccc(C(=O)n2cc(C)n(-c3ccc(Cl)cc3)c2=S)c1
Solution: 65

Exercise: So what does the record say about Activity for Cc1ccc(C(=O)n2cc(C)n(-c3ccc(Br)cc3)c2=S)cc1 ?
Solution: 80

Exercise: GET /values?readout=Activity&item= Cc1cccc(C(=O)n2cc(C)n(-c3ccc(Br)cc3)c2=S)c1
Solution: 89

Exercise: Bench note: what Activity did COc1cccc(-n2c(C)cn(C(=O)c3ccc(C)cc3)c2=S)c1 show?
Solution: 100

Exercise: Please report the recorded Activity for Cc1ccc(C(=O)n2cc(C)n(-c3ccc(Cl)cc3)c2=S)cc1 .
Solution: 68

Exercise: Param item = Clc1ccc(COC(Cn2ccnc2)c2ccc(Cl)cc2Cl)c(Cl)c1 (stereo unspecified) ; retrieve measured Activity.
Solution: 110.8

Exercise: Given the compound Cc1cccc(C(=O)n2cc(C)n(-c3cccc(C)c3)c2=S)c1 , what is its reported Activity?
Solution: 100

Exercise: Look up Activity: COc1cccc(-n2c(C)cn(C(=O)c3cccc(C)c3)c2=S)c1
Solution: 100

Exercise: // Activity lookup, key: Cc1ccc(C(=O)n2cc(C)n(-c3cccc(C)c3)c2=S)cc1
Solution: 92

* * *

- Test system: Rhyzopertha dominica
- Assay Explanation: Insecticidal activity against Rhyzopertha dominica assessed as mortality at 200 ug/ml
- Assay type: functional
Checkbox rule: Activity lower than 20% = t; Activity not lower than 20% = f.

Exercise: Quick check: Activity of Cc1cccc(C(=O)n2cc(C)n(-c3ccc(Cl)cc3)c2=S)c1 under 20%?
Solution: f

Exercise: Problem: For the compound Cc1cccc(C(=O)n2cc(C)n(-c3cccc(Cl)c3)c2=S)c1 , is Activity under 20%?
Solution: f

Exercise: Quick check: Activity of Cc1ccc(C(=O)n2cc(C)n(-c3cccc(Cl)c3)c2=S)cc1 under 20%?
Solution: t

Exercise: Lab note: Activity threshold 20%. Does this compound come in strictly under it? Cc1cccc(C(=O)n2cc(C)n(-c3ccc(Br)cc3)c2=S)c1
Solution: f

Exercise: Hi there! Is Activity for Cc1cccc(C(=O)n2cc(C)n(-c3ccccc3Cl)c2=S)c1 below 20%, do you know?
Solution: t

Exercise: # check: Activity < 20% for COc1ccccc1C(=O)n1cc(C)n(-c2ccc(Cl)cc2)c1=S
Solution: t

Exercise: For Cc1ccc(C(=O)n2cc(C)n(-c3ccccc3Cl)c2=S)cc1 , is the recorded Activity below the cut-off of 20%?
Solution: f

Exercise: Report whether reported Activity is lower than 20% (strictly) for Cc1ccc(C(=O)n2cc(C)n(-c3ccc(Br)cc3)c2=S)cc1
Solution: t
